tgt: human uPAR (uPAR-Fc) (Homo sapiens)
Construct: comprising amino acids Leu23-Arg303 according to UniProt entry Q03405.1; purchased R&D Systems 10378-UK-100
Sequence (Q03405 23-303): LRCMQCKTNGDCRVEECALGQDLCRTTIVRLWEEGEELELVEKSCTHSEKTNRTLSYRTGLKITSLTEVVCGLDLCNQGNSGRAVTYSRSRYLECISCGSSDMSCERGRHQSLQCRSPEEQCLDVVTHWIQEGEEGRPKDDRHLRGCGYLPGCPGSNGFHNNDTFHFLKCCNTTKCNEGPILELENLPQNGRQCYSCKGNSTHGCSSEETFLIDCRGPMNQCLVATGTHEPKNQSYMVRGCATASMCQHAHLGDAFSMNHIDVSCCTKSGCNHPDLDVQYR
assay.comment: Surface plasmon resonance (SPR) assay, single cycle kinetics
Type: binding
test.settings: pKD category for uPAR SPR activity assay; uPAR-Fc on Protein A-Chip, 25°C; read-out: pKD CAT (converted)
*1 amine or outer side, *2 acyl side, *3 side chain or, on linkers, in order; H or OH if unused. Where a SMILES comes first, the peptide text is derived from it. Bridges are numbered along the chain shown (N, C = ends). [ ]: non-standard residue; d: D form. The star is where a group is joined. DOTA = O=C(O)CN1CCN(CC(=O)O)CCN(CC(=O)*)CCN(CC(=O)O)CC1; Phe(4-Cl) = N[C@@H](Cc1ccc(Cl)cc1)C(=O)O; 2Nal = N[C@@H](Cc1ccc2ccccc2c1)C(=O)O; Ser(ΨH,HPro) = O=C(O)[C@@H]1COCN1; Pentanoyl(4-Me) = CC(C)CCC(=O)*; Cit = NC(=O)NCCC[C@H](N)C(=O)O; Api = NC1(C(=O)O)CCNCC1; Nva = CCC[C@H](N)C(=O)O; Pentanoyl = CCCCC(=O)*; CO = O=C([*:1])[*:2]; NHBu = CCCCN*
property: Kd

CC[C@H](C)[C@@H]1NC(=O)[C@@H](C)NC(=O)[C@@H]2CCCN2C(=O)[C@H](Cc2ccc3ccccc3c2)NC(=O)[C@H](Cc2ccc(O)cc2)NC(=O)[C@H](CCC(N)=O)NC(=O)[C@H](CCCNC(N)=O)NC(=O)[C@@H](NC(=O)CCC(C)C)CSSC[C@@H](C(N)=O)NC(=O)[C@H](CC(C)C)NC1=O [UPAR-147] ({Pentanoyl(4-Me)}-C[Cit]QY[2Nal]P[dA]ILC-NH2; disulfide 1-10)
10 to 100 nM

Response field Kd (human uPAR (uPAR-Fc) (Homo sapiens)) for item CC[C@H](C)[C@@H]1NC(=O)[C@@H](C)NC(=O)[C@@H]2CCCN2C(=O)[C@H](Cc2ccccc2)NC(=O)[C@H](Cc2ccc(O)cc2)NC(=O)[C@H](CCCCNC(=O)CN2CCN(CC(=O)O)CCN(CC(=O)O)CCN(CC(=O)O)CC2)NC(=O)[C@H](CCCNC(=N)N)NC(=O)[C@@H](NC(=O)CCC(C)C)CSSC[C@@H](C(N)=O)NC(=O)[C@H](CC(C)C)NC1=O [UPAR-176] ({Pentanoyl(4-Me)}-CRK(DOTA)YFP[dA]ILC-NH2; disulfide 1-10) : < 1.58 nM

Response field Kd (human uPAR (uPAR-Fc) (Homo sapiens)) for item CCCCC(=O)N[C@H]1CSSC[C@@H](C(N)=O)NC(=O)[C@H](CCC)NC(=O)[C@H]([C@@H](C)CC)NC(=O)[C@H](Cc2ccc(O)cc2)NC(=O)[C@@H]2CCCN2C(=O)[C@H](Cc2ccccc2)NC(=O)[C@H](Cc2ccc(O)cc2)NC(=O)[C@H](CCC(N)=O)NC(=O)[C@H](CCCNC(=N)N)NC1=O [UPAR-226] (Pentanoyl-CRQYFPYI[Nva]C-NH2; disulfide 1-10) : < 1.58 nM

Response field Kd (human uPAR (uPAR-Fc) (Homo sapiens)) for item CC[C@H](C)[C@@H]1NC(=O)[C@@H](C)NC(=O)[C@@H]2CCCN2C(=O)[C@H](Cc2ccc(Cl)cc2)NC(=O)[C@H](Cc2ccc(O)cc2)NC(=O)[C@H](CCC(N)=O)NC(=O)[C@H](CCCNC(N)=O)NC(=O)[C@@H](NC(=O)CCC(C)C)CSSC[C@@H](C(N)=O)NC(=O)[C@H](CC(C)C)NC1=O [UPAR-332] ({Pentanoyl(4-Me)}-C[Cit]QY[Phe(4-Cl)]P[dA]ILC-NH2; disulfide 1-10) : < 1.58 nM

Response field Kd (human uPAR (uPAR-Fc) (Homo sapiens)) for item CC[C@H](C)[C@@H]1NC(=O)[C@@H](C)NC(=O)[C@@H]2CCCN2C(=O)[C@H](C)NC(=O)[C@H](Cc2ccc(O)cc2)NC(=O)[C@H](CCC(N)=O)NC(=O)[C@H](CCCNC(N)=O)NC(=O)[C@@H](NC(=O)CCC(C)C)CSSC[C@@H](C(N)=O)NC(=O)[C@H](CC(C)C)NC1=O [UPAR-263] ({Pentanoyl(4-Me)}-C[Cit]QYAP[dA]ILC-NH2; disulfide 1-10) : > 100 nM

Response field Kd (human uPAR (uPAR-Fc) (Homo sapiens)) for item CCCCNC(=O)N[C@H]1CSSC[C@@H](C(N)=O)NC(=O)[C@H](CC(C)C)NC(=O)[C@H]([C@@H](C)CC)NC(=O)[C@@H](C)NC(=O)[C@@H]2CCCN2C(=O)[C@H](Cc2ccccc2)NC(=O)[C@H](Cc2ccc(O)cc2)NC(=O)[C@H](CCC(N)=O)NC(=O)[C@H](CCCNC(N)=O)NC1=O [UPAR-286] ({NHBu-CO}-C[Cit]QYFP[dA]ILC-NH2; disulfide 1-10) : < 1.58 nM

Response field Kd (human uPAR (uPAR-Fc) (Homo sapiens)) for item CC[C@H](C)[C@@H]1NC(=O)C2(CCN(C(=O)CN3CCN(CC(=O)O)CCN(CC(=O)O)CCN(CC(=O)O)CC3)CC2)NC(=O)[C@@H]2CCCN2C(=O)[C@H](Cc2ccccc2)NC(=O)[C@H](Cc2ccc(O)cc2)NC(=O)[C@H](CCC(N)=O)NC(=O)[C@H](CCCNC(N)=O)NC(=O)[C@@H](NC(=O)CCC(C)C)CSSC[C@@H](C(N)=O)NC(=O)[C@H](CC(C)C)NC1=O [UPAR-219] ({Pentanoyl(4-Me)}-C[Cit]QYFP[Api](DOTA)ILC-NH2; disulfide 1-10) : 1.58 to 10 nM

Response field Kd (human uPAR (uPAR-Fc) (Homo sapiens)) for item CC[C@H](C)[C@@H]1NC(=O)[C@@H](C)NC(=O)[C@@H]2COCN2C(=O)[C@H](Cc2ccccc2)NC(=O)[C@H](Cc2ccc(O)cc2)NC(=O)[C@H](CCC(N)=O)NC(=O)[C@H](CCCNC(N)=O)NC(=O)[C@@H](NC(=O)CCC(C)C)CSSC[C@@H](C(N)=O)NC(=O)[C@H](CC(C)C)NC1=O [UPAR-321] ({Pentanoyl(4-Me)}-C[Cit]QYF[Ser(ΨH,HPro)][dA]ILC-NH2; disulfide 1-10) : 1.58 to 10 nM
